tested on: HCT15 (Colon); experiment: SRB assay, HCT15; assay type: cell-based, human; conditions: Homo sapiens, HCT-15, 48 h, read-out: LC50
Assay Endpoint: CC50 (µM)
Give the quantity in µM, number only.

>>> readout_number("C[C@]12CCC(=NOCCN)C=C1CCC1C2CC[C@]2(C)C(=O)CCC12 (stereo partly shown)")
9.61
>>> readout_number("C[C@]12CCC(=NOCCN)C=C1CCC1C2CC[C@@]2(C)C1CC[C@@H]2O (stereo partly shown)")
76.3
>>> readout_number("C[C@H]1O[C@@H](O[C@H]2[C@@H](O)C[C@H](O[C@H]3[C@@H](O)C[C@H](O[C@H]4CC[C@@]5(C)[C@H](CC[C@@H]6[C@@H]5C[C@@H](O)[C@]5(C)[C@@H](C7=CC(=O)OC7)CC[C@]65O)C4)O[C@@H]3C)O[C@@H]2C)C[C@H](O)[C@@H]1O [Digoxin, reference compound]")
0.16

Sure, the documented CC50 for CC(=O)O[C@H]1C(=O)[C@@]2(C)[C@H]([C@H](OC(=O)c3ccccc3)[C@]3(O)C[C@H](OC(=O)[C@H](O)[C@@H](NC(=O)c4ccccc4)c4ccccc4)C(C)=C1C3(C)C)[C@]1(OC(C)=O)CO[C@@H]1C[C@@H]2O [Paclitaxel, reference compound] is 12.3

====

Tested on: MCF7 (Breast)
Assay: SRB assay, MCF7
Assay type: cell-based, human
Details: Homo sapiens, MCF7, 48 h, read-out: LC50
Description: SRB assays were performed according to standard National Cancer Institute Guidelines. […] Following drug addition, each culture was incubated for forty-eight hours. […] After staining, the bound stain was solubilized and the absorbance was read on an automated plate reader at a wavelength of 515 nm. […] Three dose response parameters were calculated for each experimental agent. […] The drug concentration resulting in total growth inhibition (TGI) was calculated from Ti=Tz. […]
Each record here notes measured CC50.

Guide cases for CC50, answers given:
>>> result("C[C@@H]1O[C@@H](O[C@H]2C[C@@H](O)[C@]3(CO)[C@H]4[C@H](O)C[C@]5(C)[C@@H](C6=CC(=O)OC6)CC[C@]5(O)[C@@H]4CC[C@]3(O)C2)[C@H](O)[C@H](O)[C@H]1O [Ouabain, reference compound]")
"0.3 µM"
>>> result("C[C@]12CCC(=NOCCN)C=C1CCC1C2CC[C@]2(C)C(=O)CCC12 (some centres unmarked) [Compound 12]")
"9.47 µM"
>>> result("CC(=O)O[C@H]1C(=O)[C@@]2(C)[C@H]([C@H](OC(=O)c3ccccc3)[C@]3(O)C[C@H](OC(=O)[C@H](O)[C@@H](NC(=O)c4ccccc4)c4ccccc4)C(C)=C1C3(C)C)[C@]1(OC(C)=O)CO[C@@H]1C[C@@H]2O [Paclitaxel, reference compound]")
"> 10 µM"
>>> result("C[C@H]1O[C@@H](O[C@H]2[C@@H](O)C[C@H](O[C@H]3[C@@H](O)C[C@H](O[C@H]4CC[C@@]5(C)[C@H](CC[C@@H]6[C@@H]5C[C@@H](O)[C@]5(C)[C@@H](C7=CC(=O)OC7)CC[C@]65O)C4)O[C@@H]3C)O[C@@H]2C)C[C@H](O)[C@@H]1O [Digoxin, reference compound]")
"0.4 µM"

Summary for this molecule, C[C@]12CCC(=NOCCN)C=C1CCC1C2CC[C@@]2(C)C1CC[C@@H]2O (some centres unmarked) [Compound 120] : CC50 is 24.1 µM
